Test system: Eiysiphe graminis f. sp. tritici
assay details: Test A: wheat powdery mildew, preventive spray on wheat seedlings
Type: in vivo
experimental parameters: wheat seedlings sprayed to run-off, inoculated the following day; rating relative to controls; unmarked compounds (standard test rate)
List of Test A disease control rating (100 = 100% disease control, 0 = no disease control) values.
Unit % implied. Number only.

Example results:
compound	assayed target	val
CC(COc1cc(F)c(F)cc1C#N)NC(=O)C(C#N)C(C)C(C)(C)C (mixture of isomers)	Eiysiphe graminis f. sp. tritici	56
CCC(=CCNC(=O)C1(CC)C(C)C1(Cl)Cl)c1cc(Cl)ccc1Cl (stereo not drawn)	Eiysiphe graminis f. sp. tritici	98
C#CC(C)(C)C(C#N)C(=O)NC(C)COc1cc(Cl)ccc1F (mixture of isomers)	Eiysiphe graminis f. sp. tritici	59
CCCC(C#N)C(=O)NC(C)C(Oc1cc(F)ccc1C#N)c1ccccc1 (mixture of isomers)	Eiysiphe graminis f. sp. tritici	0
C=CC(C)(CC)C(C#N)C(=O)NC(C)COc1cc(Cl)ccc1F (mixture of isomers)	Eiysiphe graminis f. sp. tritici	0

# input for lookup
Test A disease control rating (100 = 100% disease control, 0 = no disease control) for C#Cc1ccccc1OCC(C)NC(=O)C(C#N)C(C)(C)C (mixture of isomers) ?
0

* * *

System: Eiysiphe graminis f. sp. tritici
assay details: Test A: wheat powdery mildew, preventive spray on wheat seedlings
Type: in vivo
experimental parameters: wheat seedlings sprayed to run-off, inoculated the following day; rating relative to controls; unmarked compounds (standard test rate)
List of Test A disease control rating (100 = 100% disease control, 0 = no disease control) values.
Unit % implied. Number only.

compound	assayed target	val
C#CC(C)(C=C)C(C#N)C(=O)NC(C)COc1cc(F)ccc1Cl (mixture of isomers)	Eiysiphe graminis f. sp. tritici	0
CCC1(C(=O)NC(C)COc2ccc(C(C)(C)C)cc2)C(C)C1(Cl)Cl (centres unmarked)	Eiysiphe graminis f. sp. tritici	38
C=CC(C)(CC)C(C#N)C(=O)NC(C)COc1cc(F)ccc1Cl (mixture of isomers)	Eiysiphe graminis f. sp. tritici	62
CCC1(C(=O)NC(C)COc2c(Cl)cccc2C#N)C(C)C1(Cl)Cl (mixture of isomers)	Eiysiphe graminis f. sp. tritici	0
CCC1(C(=O)NC(C)COc2cc(F)c(F)cc2Br)C(C)C1(Cl)Cl (centres unmarked)	Eiysiphe graminis f. sp. tritici	0
CCC1(C(=O)NC(C)COc2cc(Br)ccc2C#N)C(C)C1(Cl)Cl (centres unmarked)	Eiysiphe graminis f. sp. tritici	53

Test A disease control rating (100 = 100% disease control, 0 = no disease control) for C=C(F)C(C)(C)C(C#N)C(=O)NC(C)COc1cc(F)ccc1F (mixture of isomers) ?
0

Item: CCCC(C#N)C(=O)NC(C)C(Oc1ccccc1C#N)c1ccccc1 (mixture of isomers)
33

Item: CCC1(C(=O)NC(C)COc2c(C)cccc2C#N)C(C)C1(Cl)Cl (mixture of isomers)
84

Item: C=CC(C)(C)C(C#N)C(=O)NC(C)COc1cc(F)ccc1OC(F)F (mixture of isomers)
0

Item: CCC1(C(=O)NCC(C)=Cc2ccccc2)C(C)C1(Cl)Cl (centres unmarked)
77

* * *

List of Test C disease control rating (100 = 100% disease control, 0 = no disease control) values.
Tested on: Pyricularia oryzae
Format: in vivo
experimental parameters: rice seedlings sprayed to run-off, inoculated the following day; rating relative to controls; unmarked compounds (standard test rate)
Unit % implied. Number only.

compound	val
CCC1(C(=O)NC(C)COc2cc(F)cc(F)c2)C(C)C1(Cl)Cl (centres unmarked)	100

Test C disease control rating (100 = 100% disease control, 0 = no disease control) for CCC(C#N)C(=O)N[C@H](C)[C@H](Oc1ccccc1C#N)c1ccccc1 (some centres unmarked) ?
97

Item: CCC1(C(=O)NCC=C(C)c2ccccc2)C(C)C1(Cl)Cl (centres unmarked)
91

Item: CCC1(C(=O)NC(C)COc2cc(C(C)(C)C)ccc2C#N)C(C)C1(Cl)Cl (centres unmarked)
90

Item: C#CC(C)(C=C)C(C#N)C(=O)NC(C)COc1cc(F)ccc1F (mixture of isomers)
100

* * *

List of Test C disease control rating (100 = 100% disease control, 0 = no disease control) values.
Test system: Pyricularia oryzae
Assay type: in vivo
experimental parameters: rice seedlings sprayed to run-off, inoculated the following day; rating relative to controls; unmarked compounds (standard test rate)
Give the figure together with its unit, number first.

Example results:
compound	val
CCC1(C(=O)NC(C)COc2ccc(C(C)(C)C)cc2)C(C)C1(Cl)Cl (stereo not shown) [compound 241]	74%
CCC1(C(=O)NC(C)COc2cc(OC(F)F)ccc2C#N)C(C)C1(Cl)Cl (mixture of isomers) [compound 256]	0%
C=CCC(C#N)C(=O)NC(C)C(Oc1cc(F)ccc1F)c1ccccc1 (mixture of isomers) [compound 283]	99%
CCC1(C(=O)NC(C)COc2c(C)cccc2C#N)C(C)C1(Cl)Cl (mixture of isomers) [compound 259]	91%
CCC1(C(=O)NCC=C(C)c2cc(Cl)ccc2Cl)C(C)C1(Cl)Cl (stereo not shown) [compound 271]	94%

Test C disease control rating (100 = 100% disease control, 0 = no disease control) for CCCC(C#N)C(=O)NC(C)C(Oc1ccccc1C#N)c1ccccc1 (mixture of isomers) [compound 288] ?
86%

* * *

List of Test C disease control rating (100 = 100% disease control, 0 = no disease control) values.
Test system: Pyricularia oryzae
Type: in vivo
experimental parameters: rice seedlings sprayed to run-off, inoculated the following day; rating relative to controls; unmarked compounds (standard test rate)
Unit % implied. Number only.

compound	val
CCC(C)c1ccccc1OCC(C)NC(=O)C(C#N)C(C)(C)C (mixture of isomers)	99
CCC1(C(=O)NC(C)COc2cc(F)ccc2C#N)C(C)C1(Cl)Cl (centres unmarked)	100
C=CC(C)(C)C(C#N)C(=O)N[C@H](C)COc1cc(Cl)ccc1Cl (single isomer, unassigned) [215b]	99
CCC1(C(=O)NC(C)COc2ccc(Cl)c(Cl)c2Cl)C(C)C1(Cl)Cl (centres unmarked)	74
C=CC(C)(CC)C(C#N)C(=O)NC(C)COc1cc(Cl)ccc1F (mixture of isomers)	100
C=CC(C)(C)C(C#N)C(=O)NC(C)COc1cc(F)ccc1OC(F)F (mixture of isomers)	99
C=CCC(C#N)C(=O)NC(C)C(Oc1cc(F)ccc1C#N)c1ccccc1 (mixture of isomers)	99

# input for lookup
Test C disease control rating (100 = 100% disease control, 0 = no disease control) for C#CC(C)(C)C(C#N)C(=O)NC(C)COc1cc(Cl)ccc1F (mixture of isomers) ?
100

* * *

Test system: Pyricularia oryzae
Assay type: in vivo
experimental parameters: rice seedlings sprayed to run-off, inoculated the following day; rating relative to controls; unmarked compounds (standard test rate)
List of Test C disease control rating (100 = 100% disease control, 0 = no disease control) values.
Give the figure together with its unit, number first.

Example results:
compound	assayed target	val
C=CC(C)(CF)C(C#N)C(=O)NC(C)COc1cc(F)ccc1F (mixture of isomers)	Pyricularia oryzae	100%
CCC1(C(=O)NC(C)C=Cc2ccccc2)C(C)C1(Cl)Cl (mixture of isomers)	Pyricularia oryzae	86%
C[C@H](COc1cc(F)ccc1F)NC(=O)C(C#N)C(C)(C)C=CF (single isomer, unassigned) [221a]	Pyricularia oryzae	100%
CCCc1cccc(C#N)c1OCC(C)NC(=O)C(C#N)C(C)C(C)(C)C (mixture of isomers)	Pyricularia oryzae	0%
CCC(=CCNC(=O)C1(CC)C(C)C1(Cl)Cl)c1ccccc1 (centres unmarked)	Pyricularia oryzae	94%
CCC1(C(=O)NC(C)COc2cc(Br)ccc2C#N)C(C)C1(Cl)Cl (centres unmarked)	Pyricularia oryzae	97%
CCC(C#N)C(=O)NC(C)C(Oc1cc(F)ccc1C#N)c1ccccc1 (mixture of isomers)	Pyricularia oryzae	99%

Test C disease control rating (100 = 100% disease control, 0 = no disease control) for C=CCc1cccc(C#N)c1OCC(C)NC(=O)C1(CC)C(C)C1(Cl)Cl (mixture of isomers) ?
53%

* * *

System: Eiysiphe graminis f. sp. tritici
assay details: Test A: wheat powdery mildew, preventive spray on wheat seedlings
Assay type: in vivo
experimental parameters: wheat seedlings sprayed to run-off, inoculated the following day; rating relative to controls; unmarked compounds (standard test rate)
List of Test A disease control rating (100 = 100% disease control, 0 = no disease control) values.
Unit % implied. Number only.

Example results:
molecule	val
CC(COc1c(Cl)cccc1C#N)NC(=O)C(C#N)C(C)C(C)(C)C (mixture of isomers) [compound 281]	56
CC(COc1ccccc1Br)NC(=O)C1(C)CC1(Cl)Cl (mixture of isomers) [compound 313]	0
CC(C)(C)C(C#N)C(=O)NC/C=C/c1ccc(F)cc1F (racemic) [compound 273]	86
C#CC(C)(C=C)C(C#N)C(=O)NC(C)COc1cc(F)ccc1F (mixture of isomers) [compound 301]	62
C[C@H](COc1cc(F)ccc1F)NC(=O)C(C#N)C(C)(C)C=CF (single isomer, unassigned) [221b]	62

Test A disease control rating (100 = 100% disease control, 0 = no disease control) for CCC(C#N)C(=O)N[C@H](C)[C@H](Oc1cc(F)ccc1F)c1ccccc1 (stereo partly shown) [compound 293] ?
0

Item: CC(COc1c(F)ccc(F)c1C#N)NC(=O)C(C#N)C(C)C(C)(C)C (mixture of isomers) [compound 279]
56

Item: C#CC(C)(C)C(C#N)C(=O)NC(C)COc1cc(F)ccc1OC(F)F (mixture of isomers) [compound 295]
0

Item: CCC1(C(=O)NC(C)COc2cc(F)ccc2C#N)C(C)C1(Cl)Cl (stereo not shown) [compound 245]
72

Item: CCC1(C(=O)NC(C)COc2cc(F)c(F)cc2F)C(C)C1(Cl)Cl (stereo not shown) [compound 236]
77

Item: CC(COc1cc(Cl)ccc1F)NC(=O)C(C#N)C(C)(C)C=CF (mixture of isomers) [compound 224]
85

Item: CCC1(C(=O)NC(C)COc2c(Cl)cc(F)cc2Cl)C(C)C1(Cl)Cl (stereo not shown) [compound 251]
0

Item: C[C@H](COc1cc(F)ccc1F)NC(=O)C(C#N)C(C)(C)C=CF (single isomer, unassigned) [221a]
0

Item: CC(C=Cc1cc(F)ccc1F)NC(=O)C(C#N)C(C)(C)C (single isomer, unassigned) [229b]
0

Item: C=CCC(C#N)C(=O)NC(C)C(Oc1cc(F)ccc1F)c1ccccc1 (mixture of isomers) [compound 283]
0

Item: CCC1(C(=O)NC(C)COc2cc(I)ccc2C#N)C(C)C1(Cl)Cl (stereo not shown) [compound 247]
53

The reported numbers originate from patent US6642392B1.
